Quick reference: IC50 of the listed items.
molecular target: Human NaV1.7 (Homo sapiens); experiment: Ionworks Barracuda (IWB) automated patch clamp assay; conditions: human NaV1.7 in HEK cells, population patch-clamp, state- and use-dependent voltage protocol; read-out: hNaV1.7 IWB-U IC50
Sequence (Q15858 whole entry): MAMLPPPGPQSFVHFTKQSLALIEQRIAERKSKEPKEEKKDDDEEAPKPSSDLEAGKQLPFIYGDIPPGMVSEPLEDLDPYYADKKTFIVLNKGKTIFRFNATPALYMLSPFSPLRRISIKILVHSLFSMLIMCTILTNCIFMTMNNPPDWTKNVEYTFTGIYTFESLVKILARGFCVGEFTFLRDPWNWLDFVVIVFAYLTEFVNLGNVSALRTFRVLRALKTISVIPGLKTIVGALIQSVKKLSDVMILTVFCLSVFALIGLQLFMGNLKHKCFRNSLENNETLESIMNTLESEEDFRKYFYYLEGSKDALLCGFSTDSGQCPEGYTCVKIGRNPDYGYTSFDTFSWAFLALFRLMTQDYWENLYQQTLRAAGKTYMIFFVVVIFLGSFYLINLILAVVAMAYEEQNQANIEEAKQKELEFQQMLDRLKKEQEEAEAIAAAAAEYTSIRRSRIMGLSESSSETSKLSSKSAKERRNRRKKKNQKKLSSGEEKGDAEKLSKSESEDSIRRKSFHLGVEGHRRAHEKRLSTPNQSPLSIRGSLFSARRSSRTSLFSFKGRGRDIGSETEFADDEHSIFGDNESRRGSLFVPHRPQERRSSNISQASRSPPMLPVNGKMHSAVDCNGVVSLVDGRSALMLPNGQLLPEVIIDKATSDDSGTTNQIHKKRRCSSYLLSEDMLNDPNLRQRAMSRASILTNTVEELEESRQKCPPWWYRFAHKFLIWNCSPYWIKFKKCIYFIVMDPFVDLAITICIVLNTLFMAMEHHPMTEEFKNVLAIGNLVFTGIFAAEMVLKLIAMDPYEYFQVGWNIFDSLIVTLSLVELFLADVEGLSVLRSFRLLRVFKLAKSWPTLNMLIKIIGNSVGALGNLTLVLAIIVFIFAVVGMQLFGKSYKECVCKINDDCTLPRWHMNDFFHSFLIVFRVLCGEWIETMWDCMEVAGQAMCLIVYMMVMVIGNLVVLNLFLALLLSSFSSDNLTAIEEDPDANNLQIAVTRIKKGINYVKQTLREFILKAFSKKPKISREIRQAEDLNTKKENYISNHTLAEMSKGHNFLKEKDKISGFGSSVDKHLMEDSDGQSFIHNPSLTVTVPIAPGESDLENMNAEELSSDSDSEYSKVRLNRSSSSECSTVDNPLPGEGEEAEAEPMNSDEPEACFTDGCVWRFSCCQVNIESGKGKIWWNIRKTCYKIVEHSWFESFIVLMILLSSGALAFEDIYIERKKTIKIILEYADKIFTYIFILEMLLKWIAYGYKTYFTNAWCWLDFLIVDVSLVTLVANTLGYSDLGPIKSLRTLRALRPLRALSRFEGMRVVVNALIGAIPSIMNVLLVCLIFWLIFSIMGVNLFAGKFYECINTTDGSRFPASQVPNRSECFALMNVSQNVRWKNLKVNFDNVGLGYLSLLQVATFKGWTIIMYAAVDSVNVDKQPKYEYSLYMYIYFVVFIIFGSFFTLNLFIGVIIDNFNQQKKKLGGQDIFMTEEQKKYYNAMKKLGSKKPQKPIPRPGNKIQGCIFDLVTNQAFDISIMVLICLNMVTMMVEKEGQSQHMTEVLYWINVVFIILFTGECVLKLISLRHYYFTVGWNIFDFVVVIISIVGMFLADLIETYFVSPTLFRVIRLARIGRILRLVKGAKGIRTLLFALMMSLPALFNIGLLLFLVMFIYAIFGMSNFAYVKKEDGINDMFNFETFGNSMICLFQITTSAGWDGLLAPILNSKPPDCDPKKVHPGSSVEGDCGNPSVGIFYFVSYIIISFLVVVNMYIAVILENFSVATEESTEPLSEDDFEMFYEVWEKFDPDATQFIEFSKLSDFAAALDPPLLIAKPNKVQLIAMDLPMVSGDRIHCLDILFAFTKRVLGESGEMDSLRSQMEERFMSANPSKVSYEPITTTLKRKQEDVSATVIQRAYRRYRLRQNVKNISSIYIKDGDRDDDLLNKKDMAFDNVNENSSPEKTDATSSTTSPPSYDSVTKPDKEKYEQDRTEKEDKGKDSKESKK

- molecule: "COc1cc(C2(C(F)(F)F)CC2)c(Cl)cc1-n1c(=O)ccc2cc(S(=O)(=O)Nc3ccon3)ccc21 (atropisomer, axis not shown; (P)) [Example 24]"
  u: "nM"
  IC50: 6
- molecule: "COc1cc([C@@H]2C[C@H]2C(F)(F)F)c(C)cc1-n1c(=O)ccc2cc(S(=O)(=O)Nc3ncccn3)ccc21 (atropisomer, axis not shown; (P)) [Example 28]"
  u: "nM"
  IC50: 42
- molecule: "COc1cc([C@H]2C[C@@H]2C2CC2)c(F)cc1-n1c(=O)ccc2cc(S(=O)(=O)Nc3ccon3)ccc21 (atropisomer, axis not shown; (P)) [Example 31]"
  u: "nM"
  IC50: 9
- molecule: "COc1cc([C@H]2C[C@@H]2C(F)(F)F)c(F)cc1-n1c(=O)ccc2cc(S(=O)(=O)Nc3ccon3)ccc21 (atropisomer, axis not shown; (P)) [Example 4]"
  u: "nM"
  IC50: 11
- molecule: "COc1cc([C@@H]2C[C@H]2C(F)(F)F)c(F)cc1-n1c(=O)ccc2cc(S(=O)(=O)Nc3ncco3)ccc21 (atropisomer, axis not shown; (P)) [Example 35]"
  u: "nM"
  IC50: 11
